# Tested on: Rattus norvegicus
# testName: Hypotensive activity in anesthetized rats, dose that produced a 30% fall in mean blood pressure after 30 minutes
# Format: functional
Assign ED30 to each entry below.
Express it in µM/kg; write the number only.

Incoming: So what's the measured ED30 for this one? "CCOC(=O)C1CCN(c2nc(N)c3cc(OC)c(OC)cc3n2)CC1.Cl"
Outgoing: 30

Incoming: So what's the measured ED30 for this one? COc1cc2nc(N3CCN(C(=O)c4ccco4)CC3)nc(N)c2cc1OC [PRAZOSIN]
Outgoing: 0.03

Incoming: So what's the measured ED30 for this one? "CCC(=O)C1CCN(c2nc(N)c3cc(OC)c(OC)cc3n2)CC1.Cl"
Outgoing: 30
